- assayed-target: human cloned dopamine D3 receptors (Homo sapiens, UniProt P35462)
- Construct: expressed in transfected cells; host or cells: CHO cells
- Sequence (P35462 whole entry): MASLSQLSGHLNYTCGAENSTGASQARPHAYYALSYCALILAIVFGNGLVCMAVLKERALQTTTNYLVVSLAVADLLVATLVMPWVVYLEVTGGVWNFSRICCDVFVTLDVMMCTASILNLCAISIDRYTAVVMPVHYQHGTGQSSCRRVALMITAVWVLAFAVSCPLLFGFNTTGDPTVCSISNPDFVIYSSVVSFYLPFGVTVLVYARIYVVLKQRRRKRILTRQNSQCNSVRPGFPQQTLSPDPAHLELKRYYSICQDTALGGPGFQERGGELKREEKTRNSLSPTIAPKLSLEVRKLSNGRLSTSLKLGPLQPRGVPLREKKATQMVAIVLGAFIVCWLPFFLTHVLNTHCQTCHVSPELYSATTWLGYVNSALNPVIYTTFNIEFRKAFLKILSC
- protocol-details: Inhibition of the binding of [3H]-Spiperone to human D3 receptors
- condition-parameters: [3H]Spiperone 0.3 nM, membranes of CHO-cells; read-out: D3-bind. IC50
Give pIC50 for every item shown.
Answers are plain numbers, as −log10 of the molar value.

>>> print(df.to_string())
                                   molecule  reported_property  measured
0  Cc1c(N2CCOCC2)cccc1N1CCN(CCCCc2c[nH]c3ccccc23)CC1 [Compound 1c]              pIC50      6.89
1  CCN(CC)c1cccc(Oc2cccc(N3CCN(CCCc4c[nH]c5ccc(Cl)cc45)CC3)c2C)c1 [Compound 2c]              pIC50      7.89

Alright, here's another molecule for you.
// pIC50 lookup, key: Cc1c(Oc2cccc(N(C)C)c2)cccc1N1CCN(CCCc2c[nH]c3ccccc23)CC1 [Compound 1a] 7.59

====

Structures can show the parent of a compound that is named as a salt.
reported-property: melting point

Study these solved cases before continuing.
In [3]: df
Out[3]:
                                   compound  reported_property       measured
0  Cc1c(N2CCOCC2)cccc1N1CCN(CCCc2c[nH]c3ccc(F)cc23)CC1 (as salt: HCl)      melting point  212 to 215 °C
1  Cc1c(N2CCOCC2)cccc1N1CCN(CCCCc2c[nH]c3ccc(F)cc23)CC1      melting point  112 to 114 °C
2  Cc1c(N2CCOCC2)cccc1N1CCN(CCCc2c[nH]c3ccccc23)CC1 (hydrate or solvate)      melting point  112 to 113 °C

Note: attention shifts to another entry.
Reported melting point, compound Cc1c(N2CCOCC2)cccc1N1CCN(CCCCc2c[nH]c3ccccc23)CC1 : ____ 111 to 113 °C

====

- assayed-target: human cloned dopamine D3 receptors (Homo sapiens, UniProt P35462)
- Construct: expressed in transfected cells; host or cells: CHO cells
- protocol-details: Inhibition of the binding of [3H]-Spiperone to human D3 receptors
- condition-parameters: test compound at 50 nM; [3H]Spiperone 0.3 nM; read-out: D3-bind. % inhibition of binding at 50 nM
- Method: Inhibition of the Binding of [^3H]-Spiperone to Human D3 Receptors By this method the inhibition by drugs of the binding [^3H]Spiperone (0.3 nM) to membranes of human cloned dopamine D3 receptors expressed in CHO-cells is determined in vitro. Method modified from R. G. MacKenzie et al. Eur. J. Pharm.-Mol. Pharm. Sec. 1994, 266, 79-85. […]
reported-property: inhibition at 0.05 µM (%)
Give bare numbers, in %.

In [3]: df
Out[3]:
                                   compound      reported_property  unit_annotation  measured
0  COc1cc(Oc2cccc(N3CCN(CCCc4c[nH]c5ccc(Cl)cc45)CC3)c2C)cc(OC)c1OC [Compound 2e]  inhibition at 0.05 µM                %        71
1  Cc1c(N2CCOCC2)cccc1N1CCN(CCCc2c[nH]c3ccc(Cl)cc23)CC1 [Compound 2l]  inhibition at 0.05 µM                %        40
2  Cc1c(N2CCN(CCCc3c[nH]c4c(F)cc(F)cc34)CC2)cccc1N1CCC[C@H]1CO [Compound 2s]  inhibition at 0.05 µM                %        36
3  Cc1c(N2CCOCC2)cccc1N1CCCN(CCCc2c[nH]c3ccc(F)cc23)CC1 [Compound 2aa]  inhibition at 0.05 µM                %        40

The following compounds each have a reported value; give each one's inhibition at 0.05 µM.
1. Cc1c(Oc2cccc(N(C)C)c2)cccc1N1CCN(CCCc2c[nH]c3ccc(Cl)cc23)CC1 [Compound 2m]
2. Cc1c(N2CCN(CCCc3c[nH]c4c(F)cc(F)cc34)CC2)cccc1N1CC(C)OC(C)C1 (centres unmarked) [Compound 2w]
3. Cc1c(N2CCN(CCCc3c[nH]c4ccccc34)CC2)cccc1N1CCC[C@H]1CO [Compound 2o]

74
43
19

====

Exercise: state measured inhibition at 0.05 µM for each of the compounds provided.
- assayed-target: human cloned dopamine D4.2 receptors (Homo sapiens, UniProt P21917, DEL265-296)
- Construct: expressed in transfected cells; host or cells: CHO cells
- Sequence (P21917 with tags, fused parts or gaps DEL265-296): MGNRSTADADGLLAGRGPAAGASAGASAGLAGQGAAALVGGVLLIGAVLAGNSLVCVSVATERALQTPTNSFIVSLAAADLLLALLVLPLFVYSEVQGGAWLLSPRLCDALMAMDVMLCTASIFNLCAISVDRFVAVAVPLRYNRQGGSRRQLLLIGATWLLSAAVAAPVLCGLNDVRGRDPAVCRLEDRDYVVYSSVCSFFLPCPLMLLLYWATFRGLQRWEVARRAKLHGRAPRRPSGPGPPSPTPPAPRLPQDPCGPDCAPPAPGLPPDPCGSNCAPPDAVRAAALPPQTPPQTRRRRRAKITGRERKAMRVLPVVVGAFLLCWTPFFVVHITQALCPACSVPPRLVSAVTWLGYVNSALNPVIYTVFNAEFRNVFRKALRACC
- protocol-details: Inhibition of the binding of 3H-YM-09151-2 to human dopamine D4 receptors
- condition-parameters: test compound at 50 nM; [3H]YM-09151-2 0.06 nM; read-out: D4-bind. % inhibition of binding at 50 nM
Numbers only, in %.

>>> print(df.to_string())
                                  structure      reported_property  unit_annotation  measured
0  Cc1c(N2CCOCC2)cccc1N1CCCN(CCCc2c[nH]c3ccc(F)cc23)CC1  inhibition at 0.05 µM                %        53

For each listed entry, give its inhibition at 0.05 µM.
1. CCN(CC)c1cccc(Oc2cccc(N3CCN(CCCCc4c[nH]c5ccc(Cl)cc45)CC3)c2C)c1
2. COc1cc(Oc2cccc(N3CCN(CCCc4c[nH]c5ccc(F)cc45)CC3)c2C)cc(OC)c1OC
3. Cc1c(N2CCN(CCCc3c[nH]c4ccc(F)cc34)CC2)cccc1N1CCC[C@H]1CO

1: 53; 2: 98; 3: 67

====

- assayed-target: human cloned dopamine D4.2 receptors (Homo sapiens, UniProt P21917, DEL265-296)
- protocol-details: Inhibition of the binding of 3H-YM-09151-2 to human dopamine D4 receptors
- condition-parameters: [3H]YM-09151-2 0.06 nM, membranes of CHO-cells; read-out: D4-bind. IC50
For each record, write down the corresponding log10 IC50.
Please be aware that the numbers have been log10-transformed from IC50 in nM.

Worked cases, log10 IC50 given:
                                   molecule  measured
0  Cc1c(Oc2cccc(N(C)C)c2)cccc1N1CCN(CCCc2c[nH]c3c(F)cc(F)cc23)CC1      1.51
1  Cc1c(N2CCOCC2)cccc1N1CCN(CCCc2c[nH]c3ccccc23)CC1      0.77
2  Cc1c(N2CCN(CCCc3c[nH]c4c(F)cc(F)cc34)CC2)cccc1N1CC(C)OC(C)C1 (centres unmarked)      1.53

Please look at the items below and tell me log10 IC50 for each one, in order.
1. Cc1c(N2CCOCC2)cccc1N1CCN(CCCCc2c[nH]c3ccc(F)cc23)CC1
2. Cc1c(Oc2cccc(N(C)C)c2)cccc1N1CCN(CCCc2c[nH]c3ccccc23)CC1
3. Cc1c(N2CCN(CCCc3c[nH]c4c(F)cc(F)cc34)CC2)cccc1N1CCC[C@H]1CO
4. CCN(CC)c1cccc(Oc2cccc(N3CCCN(CCCc4c[nH]c5c(F)cc(F)cc45)CC3)c2C)c1
5. Cc1c(Oc2ccc3c(c2)OCO3)cccc1N1CCN(CCCc2c[nH]c3c(F)cc(F)cc23)CC1

1: 1.15; 2: 1.68; 3: 1.61; 4: 1.88; 5: 1.67

====

- assayed-target: human cloned dopamine D3 receptors (Homo sapiens, UniProt P35462)
- Construct: expressed in transfected cells; host or cells: CHO cells
- protocol-details: Inhibition of the binding of [3H]-Spiperone to human D3 receptors
- condition-parameters: test compound at 50 nM; [3H]Spiperone 0.3 nM; read-out: D3-bind. % inhibition of binding at 50 nM
reported-property: inhibition at 0.05 µM

Please give inhibition at 0.05 µM, item by item, for the list that follows.
1. Cc1c(Oc2cccc(N(C)C)c2)cccc1N1CCN(CCCc2c[nH]c3ccc(F)cc23)CC1 [Compound 2h]
2. CCN(CC)c1cccc(Oc2cccc(N3CCN(CCCCc4c[nH]c5ccc(Cl)cc45)CC3)c2C)c1 [Compound 2ab]
3. Cc1c(Oc2cccc(N(C)C)c2)cccc1N1CCN(CCCCc2c[nH]c3c(F)cc(F)cc23)CC1 [Compound 2r]
4. Cc1c(N2CCN(CCCc3c[nH]c4ccc(F)cc34)CC2)cccc1N1CC(C)OC(C)C1 (stereo not shown) [Compound 2j]

["77%", "83%", "90%", "57%"]

====

- assayed-target: human cloned dopamine D4.2 receptors (Homo sapiens, UniProt P21917, DEL265-296)
- protocol-details: Inhibition of the binding of 3H-YM-09151-2 to human dopamine D4 receptors
- condition-parameters: [3H]YM-09151-2 0.06 nM, membranes of CHO-cells; read-out: D4-bind. IC50
- Procedure: Inhibition of the Binding of ^3H-YM-09151-2 to Human Dopamine D4 Receptors By this method the inhibition by drugs of the binding of [^3H]YM-09151-2 (0.06 nM) to membranes of human cloned dopamine D4.2 receptors expressed in CHO-cells is determined in vitro. Method modified from NEN Life Science Products, Inc., technical data certificate PC2533-10/96. […]
For each record, write down the corresponding pIC50.
Numbers only, as −log10 of the molar value.

Use the examples below as a reference point.
>>> df
                                   compound                            assayed_target  measured
0  Cc1c(Oc2cccc(N(C)C)c2)cccc1N1CCN(CCCCc2c[nH]c3c(F)cc(F)cc23)CC1 [Compound 2r]  human cloned dopamine D4.2 receptors (Homo sapiens, UniProt P21917, DEL265-296)      7.21
1  Cc1c(N2CCOCC2)cccc1N1CCN(CCCc2c[nH]c3ccc(Cl)cc23)CC1 [Compound 2l]  human cloned dopamine D4.2 receptors (Homo sapiens, UniProt P21917, DEL265-296)      7.52

Below are 3 compounds. Give each one its pIC50.
1. Cc1c(N2CCOCC2)cccc1N1CCN(CCCCc2c[nH]c3ccccc23)CC1 [Compound 1c]
2. Cc1c(N2CCN(CCCc3c[nH]c4ccccc34)CC2)cccc1N1CCC[C@H]1CO [Compound 2o]
3. Cc1c(N2CCN(CCCc3c[nH]c4ccc(F)cc34)CC2)cccc1N1CC(C)OC(C)C1 (centres unmarked) [Compound 2j]

1. 7.82
2. 7.28
3. 7.44
